# system: L-lactate dehydrogenase (Plasmodium falciparum (isolate CDC / Honduras)) (UniProt Q27743)
# Sequence (Q27743 whole entry, looked up): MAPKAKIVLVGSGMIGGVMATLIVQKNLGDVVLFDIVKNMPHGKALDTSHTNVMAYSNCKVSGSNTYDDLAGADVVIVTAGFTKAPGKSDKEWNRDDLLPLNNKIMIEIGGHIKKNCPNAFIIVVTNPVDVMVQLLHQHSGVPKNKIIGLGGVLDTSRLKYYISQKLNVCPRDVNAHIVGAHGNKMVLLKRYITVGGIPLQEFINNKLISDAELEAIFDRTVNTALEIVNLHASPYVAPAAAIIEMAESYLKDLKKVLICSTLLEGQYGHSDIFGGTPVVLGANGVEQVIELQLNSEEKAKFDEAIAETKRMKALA
# protocol-description: PfLDH activity inhibition – cell lysate, 3D7 strain, counter-screen for P. falciparum growth inhibition project (AID 2304);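 also: 0% = vehicle and 100% = reference inhibitor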
# protocol-conditions: P. falciparum 3D7 crude extract, LDH APAD/NBT absorbance; at 2 µM; hits give high values
measured-parameter: inhibition (%)
Write it as a number; the unit % goes unstated.

Missing value: inhibition, L-lactate dehydrogenase (Plasmodium falciparum (isolate CDC / Honduras)) (UniProt Q27743), entry "O=C(Cn1cnc2c(nnn2Cc2ccccc2F)c1=O)Nc1ccc2c(c1)OCCO2" . Fill in?
-2

Would you mind doing "Cc1cc(N[C@@H](Cc2ccccc2)C(=O)NCc2cccs2)nc(NCC2CCCCC2)n1" as well?
0

Would you mind doing "Clc1cc2c(Nc3ccc(Oc4ccccc4)cc3)ccnc2cc1-c1ccc(CNCCN2CCOCC2)o1" as well?
-4

Would you mind doing Cc1ccc2c(c1)C1(CC(=O)N(CCc3scnc3C)C1=O)C(=O)N2Cc1ccccc1 (stereo not given) as well?
2

Would you mind doing CCN1CCC(N(Cc2ccc(-c3ccc(C(F)(F)F)cc3)cc2)C(=O)Cn2c(CCc3cccc(F)c3F)cc(=O)c3ccccc32)C1 (stereo not given) as well?
3

* * *

Kindly state inhibition for each of the entries shown.
# system: L-lactate dehydrogenase (Plasmodium falciparum (isolate CDC / Honduras)) (UniProt Q27743)
# protocol-description: PfLDH activity inhibition – cell lysate, 3D7 strain, counter-screen for P. falciparum growth inhibition project (AID 2304);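 also: 0% = vehicle and 100% = reference inhibitor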
# protocol-conditions: P. falciparum 3D7 crude extract, LDH APAD/NBT absorbance; at 2 µM; hits give high values
Write it as a number; the unit % goes unstated.

Which measured inhibition value corresponds to "COc1ccc(NC(=O)c2ccc(-c3nc(-c4ccc(Cl)cc4)cs3)cc2)cc1N1CCN(C)CC1" ?
0

Would you mind doing "Cc1cc2nc(-c3ccc(/C=C/C(=O)NCc4ccc(Cl)c(Cl)c4)cc3)[nH]c2cc1C" as well?
-1

Would you mind doing "c1ccc(-c2[nH]c3ccccc3c2CN2CCC(N3CCCCC3)CC2)nc1" as well?
-3

Would you mind doing "N#CCSc1nnc(-c2ccccc2)c2ccccc12" as well?
-1

Would you mind doing "Cc1nc(-c2cccc(C(=O)Nc3cnc4ccccc4c3)c2)no1" as well?
-10

Would you mind doing "CC1(C)N=C(N)N=C(N)N1c1cc(Cl)c(Cl)cc1Cl" as well?
1

Would you mind doing O=C(NCc1cccc2ccccc12)C(c1cc2ccccc2o1)N1CCN(C(c2ccccc2)c2ccccc2)CC1 (stereo not drawn) as well?
-2

Would you mind doing "Cn1cccc1C(=O)C(=O)Nc1cccc(-c2ccc(-c3nc4ccc(C(F)(F)F)cc4[nH]3)cc2)c1" as well?
-7

* * *

# system: L-lactate dehydrogenase (Plasmodium falciparum (isolate CDC / Honduras))
# protocol-description: PfLDH activity inhibition – cell lysate, 3D7 strain, counter-screen for P. falciparum growth inhibition project (AID 2304);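 also: 0% = vehicle and 100% = reference inhibitor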
# protocol-conditions: P. falciparum 3D7 crude extract, LDH APAD/NBT absorbance; at 2 µM; hits give high values
measured-parameter: inhibition (%)
Write it as a number; the unit % goes unstated.

Which measured inhibition value corresponds to "Fc1cccc(COc2ccc(Nc3ncnc4sc(C#CCNC5CCCC5)cc34)cc2Cl)c1" ?
3

Would you mind doing "Cc1cccc2[nH]c(-c3ccc(-c4ccc(NC(=O)Nc5ccc(Cl)c(Cl)c5)cc4)cc3)nc12" as well?
0

Would you mind doing "c1cc(CN2CCN(CCN3CCOCC3)CC2)cc(-c2csc(-c3nc4ccccc4[nH]3)c2)c1" as well?
-8

Would you mind doing Cc1cccc(C)c1N1CCN(C2CCC(NC(=O)c3cc4ccccc4[nH]3)CC2)CC1 (configuration not stated) as well?
-7

Would you mind doing "FC(F)(F)c1ccc2nc(-c3cccc(-c4ccc(CNCCc5ccncc5)cc4)c3)[nH]c2c1" as well?
-1

Would you mind doing "C(=C(c1cccs1)c1cccs1)c1ccc(CNC2CCN(Cc3ccccc3)CC2)cc1" as well?
4

Would you mind doing "O=C1COc2ccc3ccccc3c21" as well?
6

* * *

# protocol-description: antimalarial activity against Dd2 strain (AID 2302);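 also: 0% = DMSO untreated growth and 100% = chloroquine plus artemisinin killed control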
# protocol-conditions: P. falciparum Dd2 in RBCs, LDH growth readout, 72 h; at 2 µM
Activity calls are given as the source filed them.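 How the source made its calls: active means growth inhibition above 50% at the single 2 µM test dose, taken to imply half-maximal potency below 2 µM; inactive means the rest.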
Outcome field: choose from active, inactive

Please let me know the test result on file for "CS(=O)(=O)NCCCNCc1ccc(-c2ccc(-c3nc4ccc(C(F)(F)F)cc4[nH]3)s2)cc1" .
active

Would you mind doing "CNCc1cccc2[nH]c(-c3csc(Cc4cc(Cl)ccc4OCC(C)C)n3)nc12" as well?
inactive

Would you mind doing "COc1ccc(NC(=O)Nc2ccc(-c3cccc(-c4nc5c(C)cccc5[nH]4)c3)cc2)cc1" as well?
active

Would you mind doing "Clc1ccc(CNc2nc(NCCc3cnc[nH]3)nc(Nc3ccc4c(c3)OCO4)n2)cc1" as well?
inactive

* * *

# protocol-description: antimalarial activity against Dd2 strain (AID 2302);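 also: 0% = DMSO untreated growth and 100% = chloroquine plus artemisinin killed control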
# protocol-conditions: P. falciparum Dd2 in RBCs, LDH growth readout, 72 h; at 2 µM; hits give high values
Heads up, the class ranges for growth inhibition are I (below 10%), II (10% to below 80%), III (80% or more)

Kindly identify the class of N#CC(NC(=O)C=Cc1ccccc1)c1ccccc1 (centres undefined) .
I

Would you mind doing "CCCNC[C@@H](O)[C@H](Cc1ccccc1)NC(=O)c1cc(NCC)cc(N2CCCC2=O)c1" as well?
II

Would you mind doing "O=C(/C=C/c1ccc(Cl)c(Cl)c1)NCCCCCN1CCN(C(=O)Nc2ccc(OC(F)F)cc2)CC1" as well?
I

Would you mind doing "Cc1cccc2[nH]c(-c3ccc(-c4cccc(CNCc5cccc(N)c5)c4)cc3)nc12" as well?
III

Would you mind doing "O=C(Nc1ccccc1Br)N[C@@H]1CCN(c2ccnc3ccccc23)C1" as well?
III

Would you mind doing "Nc1nccc(-c2ccc3c(-c4cccc(F)c4)cnc(N)c3c2)n1" as well?
II

Would you mind doing "Cc1cc(C)cc(NC(=S)NCCCCN2CCN(c3cccc(Cl)c3)CC2)c1" as well?
II

Would you mind doing "CC(C)(C)OC(=O)N1CCC(C2CCN(C(=O)OC(C)(C)C)CC2)CC1" as well?
II

Would you mind doing "CCOC(=O)c1c(CN(CC)CC)n(-c2ccccc2)c2cc(Br)c(O)cc12" as well?
II

* * *

# protocol-description: antimalarial activity against Dd2 strain (AID 2302);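 also: 0% = DMSO untreated growth and 100% = chloroquine plus artemisinin killed control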
# protocol-conditions: P. falciparum Dd2 in RBCs, LDH growth readout, 72 h; at 2 µM
The source made the active and inactive calls.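 The calls were made as follows: active = growth inhibition above 50% at the single 2 µM test dose, taken to imply half-maximal potency below 2 µM; inactive = the rest.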
Outcome field: choose from active, inactive

Please let me know the test result on file for "CN1CCN(CCCN(Cc2cccc(-c3cccc(CNC4CCCC4)c3)c2)C(=O)CCC2CCCC2)CC1" .
active

Would you mind doing "COCCNC(=O)C1CCN(C(c2ccc(Cl)cc2)c2ccc(Cl)cc2)CC1" as well?
active

Would you mind doing CCC(C)NCc1c(O)ccc2c(CNC(C)CC)c(O)ccc12 (stereo not drawn) as well?
inactive

* * *

# protocol-description: inhibition of 3D7 malaria parasite growth – strain 3D7 (AID 2306);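 also: 0% = DMSO wells and 100% = chloroquine plus artemisinin control wells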
# protocol-conditions: P. falciparum 3D7 erythrocytic growth, LDH absorbance, 72 h; at 2 µM; hits give high values
Activity calls are given as the source filed them. No rule for the calls is given here.
measured-parameter: growth inhibition

Which measured growth inhibition value corresponds to "c1ccc(-c2ccc(CNCc3ccc(-c4cccc(-c5nc6ccccc6[nH]5)c4)cc3)s2)nc1" ?
98% (active)

Would you mind doing "COc1ccc(Nc2ncc3c(-c4cccc(NC(=O)Cc5ccncc5)c4)c[nH]c3n2)cc1OC" as well?
99% (active)

Would you mind doing "Cc1cc(NC(=O)Nc2ccc3ncccc3c2)c2ccccc2n1" as well?
93% (active)

Would you mind doing "COc1ccc(S(=O)(=O)NC2CCN(c3cc(C)nc(Nc4cccc(C#N)c4)n3)CC2)cc1" as well?
88% (active)

Would you mind doing "CC(C)c1ccc2oc(-c3ccc(NC(=O)c4ccc([N+](=O)[O-])o4)cc3)nc2c1" as well?
100% (active)

Would you mind doing "COc1ccc(NC(=O)Nc2cccc(-c3cccc(-c4nc5ccccc5[nH]4)c3)c2)cc1" as well?
101% (active)

Would you mind doing "Cc1ccc(C(=O)c2oc3ccc4c(C)cc(=O)oc4c3c2C)cc1" as well?
86% (active)

Would you mind doing "c1ccc2cc3c(NCCN4CCOCC4)ccnc3cc2c1" as well?
99% (active)

Would you mind doing "NCc1cccc(-c2cccc(CNC3CCN(Cc4ccccc4)CC3)c2)c1" as well?
100% (active)

Would you mind doing "CN(C)Cc1ccc(-c2cccc(NC(=O)c3cccc(Cl)c3)c2)cc1" as well?
96% (active)

* * *

# protocol-description: inhibition of 3D7 malaria parasite growth – strain 3D7 (AID 2306);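 also: 0% = DMSO wells and 100% = chloroquine plus artemisinin control wells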
# protocol-conditions: P. falciparum 3D7 erythrocytic growth, LDH absorbance, 72 h; at 2 µM; hits give high values
Kindly state growth inhibition for each of the entries shown.
Write it as a number; the unit % goes unstated.

Which measured growth inhibition value corresponds to CC1CC(C)CN(S(=O)(=O)c2cc(C(=O)Nc3cccc([N+](=O)[O-])c3)ccc2Br)C1 (centres undefined) ?
101

Would you mind doing "CN(C)CCNCc1nc(-c2ccc3c(Nc4ccc(Cl)cc4F)ccnc3c2)cs1" as well?
101

Would you mind doing CC(=O)Nc1ccc(CN2CCC(CNC(=O)c3cc(-c4cccc(Cl)c4)cs3)C2)cc1 (centres undefined) as well?
91

Would you mind doing "CC[C@@H]([C@@H](Cc1cc2ccccc2s1)C(=O)N[C@@H](CCCCNC(=O)OCc1ccccc1)C(=O)Nc1ccccn1)N(O)C=O" as well?
96

Would you mind doing "Cc1cc(N)c2cc(NC(=O)c3ccc4ccccc4c3)ccc2n1" as well?
101

Would you mind doing "CC(=O)OC[C@H]1O[C@@H](C#Cc2ccccc2)[C@H](OC(C)=O)[C@@H](OC(C)=O)[C@@H]1OC(C)=O" as well?
95

Would you mind doing "COc1ccc2c(NCCc3ccccc3)cc(-c3ccccc3)nc2c1" as well?
98

Would you mind doing "Cc1c(C(=O)N(C)C)sc2c1c(=O)n(Cc1ccccc1)c(=O)n2CC(=O)Nc1ccccc1F" as well?
97

Would you mind doing "Cc1cc2ccc(-c3cccc(CN)c3)cc2nc1N" as well?
100
